Reference source: patent US20250282799A1

# Tested on: KRAS G12V dependent lung adenocarcinoma cell line, NCI-H441
# Assay Procedure: Cellular pERK (Thr202/Tyr204) FRET/HTRF assay
# Assay type: cell-based
# Reported Conditions: Homo sapiens, NCI-H441, cellular pERK (Thr202/Tyr204) HTRF, NCI-H441 cells
Metric: IC50

{"Chemical String": "[2H]C([2H])(Oc1nc(N2CCCO[C@H]3[C@H](Cl)[C@H]32)c2cnc(-c3cc(N)cc4ccc(F)c(C#C)c34)c(F)c2n1)[C@@]12CCCN1C[C@H](F)C2", "IC50": "< 0.05 µM"}
{"Chemical String": "[2H]C([2H])(Oc1nc(N2CCOC[C@@H]3[C@@H](F)[C@@H]32)c2ccc(-c3cc(N)cc(C)c3C(F)(F)F)c(F)c2n1)[C@@]12CCCN1C[C@H](F)C2", "IC50": "0.5 to 10 µM"}
{"Chemical String": "[2H]C([2H])([2H])Oc1c(F)c(F)c(F)c2cc(N)cc(-c3ncc4c(N5CCOC([2H])([2H])[C@H]6[C@H](F)[C@H]65)nc(OC([2H])([2H])[C@@]56CCCN5C[C@H](F)C6)nc4c3F)c12", "IC50": "< 0.05 µM"}

### Prompt Write down the reported IC50 of [2H]C([2H])(F)Oc1c(F)ccc2cc(N)cc(-c3ncc4c(N5CCOC[C@H]6[C@H](F)[C@H]65)nc(OC[C@@]56CCCN5CC(=C)C6)nc4c3F)c12 , test system: KRAS G12V dependent lung adenocarcinoma cell line, NCI-H441.
### Response < 0.05 µM
